targetOrSystem: DNA gyrase subunit B (Escherichia coli, UniProt P0AES6)
Lab note: compare IC50 with 2000 nM, writing T if less and F if equal or more.

[[record]]
smiles = "O=C(O)C(=O)Nc1nc2ccc(NC(=O)c3cc(Br)c(Br)[nH]3)cc2s1"
grouplabel = "T"

[[record]]
smiles = "O=C(O)CC(=O)Nc1ccc2nc(NC(=O)c3cc(Cl)c(Cl)[nH]3)sc2c1"
grouplabel = "T"

[[record]]
smiles = "O=C(O)CCC(=O)Nc1ccc2nc(NC(=O)c3cc(Cl)c(Cl)[nH]3)sc2c1"
grouplabel = "T"

[[record]]
smiles = "CCOC(=O)C(=O)Nc1ccc2nc(NC(=O)c3cc(Br)c(Br)[nH]3)sc2c1"
grouplabel = "F"

[[record]]
smiles = "CCOC(=O)C(=O)Nc1nc2ccc(NC(=O)c3cc(Cl)c(Cl)[nH]3)cc2s1"
grouplabel = "T"


query: Hello, is IC50 of the following molecule strictly smaller than 2000 nM? `O=C(O)CC(=O)Nc1ccc2nc(NC(=O)c3cc(Br)c(Br)[nH]3)sc2c1`
result: T

query: For this molecule, is IC50 lower than 2000 nM? `COC(=O)CCC(=O)Nc1ccc2nc(NC(=O)c3cc(Cl)c(Cl)[nH]3)sc2c1`
result: F

query: Bench note: check whether `COC(=O)CC(=O)Nc1ccc2nc(NC(=O)c3cc(Cl)c(Cl)[nH]3)sc2c1` shows IC50 below 2000 nM
result: T
